In this section we review reported t½ values for a set of binders.
# target or test system: MERS RBD-hFc (MERS-CoV (isolate EMC/2012))
# assay explanation: SPR (Biacore), hybridoma supernatant antibody captured, MERS RBD-hFc as analyte
Give a bare numeral; the unit h is implied.

[
  {
    "binder": "H2aM15270N (antibody, V domains shown) VH: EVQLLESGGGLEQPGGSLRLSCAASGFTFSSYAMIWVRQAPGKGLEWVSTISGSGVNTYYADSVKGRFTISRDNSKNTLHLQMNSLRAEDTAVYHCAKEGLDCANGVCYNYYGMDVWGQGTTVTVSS VL: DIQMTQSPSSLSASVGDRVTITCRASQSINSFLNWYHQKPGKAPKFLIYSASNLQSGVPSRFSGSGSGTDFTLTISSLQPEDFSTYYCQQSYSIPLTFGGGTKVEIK",
    "value reported": 0.288
  },
  {
    "binder": "H2aM15279N (antibody, V domains shown) VH: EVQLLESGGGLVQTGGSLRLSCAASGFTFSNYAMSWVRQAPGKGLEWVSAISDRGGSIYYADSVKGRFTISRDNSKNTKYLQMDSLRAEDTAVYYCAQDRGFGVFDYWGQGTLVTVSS VL: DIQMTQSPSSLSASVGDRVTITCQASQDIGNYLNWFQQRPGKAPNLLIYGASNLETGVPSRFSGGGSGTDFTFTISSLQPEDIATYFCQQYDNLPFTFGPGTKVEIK",
    "value reported": 1.6
  }
]

query: For the binder H2bM15292N (antibody, V domains shown) VH: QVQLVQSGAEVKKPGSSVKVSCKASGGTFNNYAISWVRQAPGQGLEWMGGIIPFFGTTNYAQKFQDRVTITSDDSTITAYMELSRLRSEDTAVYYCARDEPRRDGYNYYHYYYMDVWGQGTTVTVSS VL: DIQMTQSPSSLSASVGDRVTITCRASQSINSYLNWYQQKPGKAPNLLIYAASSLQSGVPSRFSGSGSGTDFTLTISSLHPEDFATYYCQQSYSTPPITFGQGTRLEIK , give its reported t½.
result: 1.13
